target: Replicase polyprotein 1ab (Severe acute respiratory syndrome coronavirus 2)
pIC50: −log10 of the molar value.
Assign satisfied to entries whose pIC50 meets or exceeds 6; assign not satisfied to the rest.

{"columns": ["COMPOUND", "ASSIGNED_LABEL"],
 "data": [
  ["O=C(NCC1CCCCC1)C1CN(c2ccc(Cl)c(Cl)c2)CCN1C(=O)c1cc(=O)[nH]c2ccccc12 (configuration not stated)", "satisfied"],
  ["O=C(C1CN(c2ccc(Cl)c(Cl)c2)CCN1C(=O)c1cc(=O)[nH]c2ccccc12)N1CCC2(CC1)COC2 (configuration not stated)", "not satisfied"],
  ["O=C(NCCC1CC1)C1CN(c2ccc(Cl)c(Cl)c2)CCN1C(=O)c1cc(=O)[nH]c2ccccc12 (configuration not stated)", "satisfied"],
  ["CNC(=O)c1cc(Br)cc([N+](=O)[O-])c1NC1CCN(C(=O)c2cc(=O)[nH]c3ccccc23)C1 (configuration not stated)", "satisfied"],
  ["CN(CC1COCCO1)C(=O)C1CN(c2ccc(Cl)c(Cl)c2)CCN1C(=O)c1cc(=O)[nH]c2ccccc12 (configuration not stated)", "not satisfied"]
]}

Hi, just wondering whether O=C(c1cc(=O)[nH]c2ccccc12)N1CCN(c2ccc(Cl)c(Cl)c2)CC1Cc1ccccc1 (configuration not stated) shows pIC50 of 6 or higher.
not satisfied

State whether the measured pIC50 reaches 6, counting equality as reaching it, for O=C(NCCC(F)(F)F)[C@@H]1CN(c2ccc(Cl)c(Cl)c2)CCN1C(=O)c1cc(=O)[nH]c2ccccc12
satisfied
